Origin of the recorded values: ChEMBL document CHEMBL1201862

# Test system: MOLT-4
# Experimental protocol: NCI tumour cell line growth inhibition, 48 h
The source made the active and inactive calls. No stated cut-off is given here; in the data, active = GI50 up to about 1.1 µM and inactive = higher.

{"Compound": "CC(C)OCC(O)COc1cc(=O)oc2ccccc12 (stereo unspecified)", "GI50": "> 100 µM (inactive)"}
{"Compound": "O=C(O)CN1CCN2CCCCCCCCN(CC1)CCN(CC(=O)O)CC2", "GI50": "> 100 µM (inactive)"}
{"Compound": "O=C(NNCc1ccc(Cl)cc1)Nc1cccc2ccccc12", "GI50": "29.4 µM (inactive)"}
{"Compound": "COC(=O)c1ccc(Cc2ccc(C(=O)OC)o2)o1", "GI50": "> 378 µM (inactive)"}
{"Compound": "CCc1cc(-c2nsc(=O)o2)c(S(=O)(=O)CC)s1", "GI50": "> 10 µM (inactive)"}
{"Compound": "Cc1c(-c2cc3n(n2)C(c2cccs2)C(C#N)=C(c2ccccc2)N3)c(=O)n(-c2ccccc2)n1C (stereo unspecified)", "GI50": "> 72.6 µM (inactive)"}

----------
# System: HCT-15
# Experimental protocol: NCI tumour cell line growth inhibition, 48 h

{"Compound": "C=CCOC(=O)N1[C@H]2C#C/C=C\\C#C[C@]3(O)C(=O)C[C@H](C)[C@]24O[C@]43C2=CC(=O)C=CC21OC (some centres undefined)", "Target of assay": "HCT-15", "Unit spec": "µM", "Qualifying sign": "=", "GI50": 31.4}
{"Compound": "CCCCCCCCCCCCCCC(C(=O)[O-])[n+]1ccccc1 (centres undefined)", "Target of assay": "HCT-15", "Unit spec": "µM", "Qualifying sign": ">", "GI50": 100}
{"Compound": "CC(C)CCCC(C)[C@H]1CCC2[C@@H]3CCC4Cc5nc6c(nc5C[C@]4(C)C3CC[C@@]21C)CC1CC[C@@H]2C(C[C@@H](O)[C@@]3(C)C2C[C@@H]2OC4(CCC(C)CO4)C(C)[C@@H]23)[C@@]1(C)C6 (some centres undefined)", "Target of assay": "HCT-15", "Unit spec": "µM", "Qualifying sign": ">", "GI50": 100}
{"Compound": "COc1ccccc1/N=C(\\N)N/N=C/c1c[nH]c2ccccc12", "Target of assay": "HCT-15", "Unit spec": "µM", "Qualifying sign": "=", "GI50": 4.2}
{"Compound": "COc1ccc(-c2csc(Cc3nc4ccccc4c(=O)n3-c3ccc(Cl)cc3)n2)cc1", "Target of assay": "HCT-15", "Unit spec": "µM", "Qualifying sign": "=", "GI50": 29.1}
{"Compound": "Cc1cnc2[nH]c(-c3ccccc3)cc(=O)c2c1", "Target of assay": "HCT-15", "Unit spec": "µM", "Qualifying sign": "=", "GI50": 0.0212}
{"Compound": "Cc1ccc(NC(=O)C(=O)CC(=O)c2ccccc2)cc1C", "Target of assay": "HCT-15", "Unit spec": "µM", "Qualifying sign": "=", "GI50": 37.2}
{"Compound": "CCCCc1c(N(C)C)c(OC(C)=O)c(-c2cn(C)c3ccccc23)oc1=O", "Target of assay": "HCT-15", "Unit spec": "µM", "Qualifying sign": "=", "GI50": 19.4}
{"Compound": "COc1ccc(CCN2CCOCC2)cc1", "Target of assay": "HCT-15", "Unit spec": "µM", "Qualifying sign": ">", "GI50": 100}
